Consider the following binders; for each one, report its peptide exchange yield.
- Target of assay: T1, HLA-A*02:01 (human)
- T1 construct: monomers captured on streptavidin plates; also called MHC class I
- Experimental protocol: UV peptide exchange ELISA

>>> test_result("KLIDNNINV")
"50 to 75%"
>>> test_result("YLAPELFVNV")
"20 to 50%"
>>> test_result("FLYDEIEAEVNL")
"50 to 75%"

Problem: # input binder: KLSDIGITV ; wanted: its peptide exchange yield
Solution: 50 to 75%
